# RP-LC retention time per record follows
assay: gradient 5% acetonitrile 3 min, to 50% in 2 min, to 85% in 15 min, held 3 min, 100 µL/min; settings: column: Zorbax Extend-C18 2.1 x 50 mm; eluents: water / acetonitrile, 0.1% formic acid

| compound | RP-LC retention time |
| --- | --- |
| Cc1ccccc1OCc1nc(-c2cccc(-c3ccnn3C)c2)no1 | 1130 s |
| CCCN(C)C[C@@H]1CC(F)(F)CN1C1CCN(S(=O)(=O)c2ccccc2C)CC1 | 620 s |
| CCc1noc(-c2cc(=O)n(CC(=O)NC(C)CC)c3ccccc23)n1 (centres undefined) | 816 s |
| COc1ccc(CCc2nc3nccc(-c4ccccn4)n3n2)cc1OC | 752 s |

Kindly note the recorded RP-LC retention time for `Cc1ccc(F)cc1S(=O)(=O)N1CCN(c2ccc(N3CCOCC3)nn2)CC1` , which is 592 s

# compound `COc1ccc(-c2nnc3n2CCN(Cc2ccccc2C#N)C3)cc1` ; its RP-LC retention time = 668 s

The measured RP-LC retention time associated with `CCOC(=O)c1c(S(=O)(=O)N2CCC(C(=O)Nc3cc(C)ccc3OC)CC2)c(C)n(C)c1C` reads 936 s

Reported RP-LC retention time ( CCCC(=O)N1CC(c2nc(-c3cccnc3)no2)C2(CCOCC2)C1 (centres undefined) ) = 622 s

Memo: `COc1ccccc1NC(=O)Cn1c(=O)n(-c2ccccc2)c(=O)c2c1cc(C)n2C` , reported RP-LC retention time: 971 s

====

experiment: gradient 5% acetonitrile 3 min, to 50% in 2 min, to 85% in 15 min, held 3 min, 100 µL/min; settings: column: Zorbax Extend-C18 2.1 x 50 mm; eluents: water / acetonitrile, 0.1% formic acid
Record fulfilled whenever RP-LC retention time is at 900 s or higher; record not fulfilled when lower.

Illustrative cases are given below, each with its answer.
| compound | groupLabel |
| --- | --- |
| CCC1CCCCN1S(=O)(=O)c1cc(-c2nnc(C)o2)co1 (centres undefined) | not fulfilled |
| CCc1ccc(S(=O)(=O)c2cnc(N3CCN(c4cccc(C)c4)CC3)nc2N)cc1 | fulfilled |
| CSc1ccc(-c2nc3ncccn3c2Nc2ccccc2C)cc1 | not fulfilled |
| COc1ccc(CNC(=O)c2cccc(N3CCNC(c4ccccc4)C3)n2)cc1 (centres undefined) | not fulfilled |
| O=C(C1CCN(c2cc(N3CCCCC3)ncn2)CC1)N1CCC(N2CCCCC2)CC1 | not fulfilled |

Next compound, please.
Entry `COc1ccc2[nH]c(=O)c(CCC(=O)NCCN(C)C3CCCCC3)cc2c1` : is its RP-LC retention time no less than 900 s?
not fulfilled

====

test: gradient 5% acetonitrile 3 min, to 50% in 2 min, to 85% in 15 min, held 3 min, 100 µL/min; details: column: Zorbax Extend-C18 2.1 x 50 mm; eluents: water / acetonitrile, 0.1% formic acid
So basically, the class depends on measured RP-LC retention time, and the ranges are c1 (below 700 s), c2 (700 s to below 800 s), c3 (800 s or more)

Examples with answers:
| molecule | groupLabel |
| --- | --- |
| O=C(NCc1cccnc1)C1c2ccccc2C(=O)N(C2CCCC2)C12CCCCC2 (centres undefined) | c1 |
| CCOCCCNC(=O)c1nnc(-c2ccc(S(=O)(=O)N3CCOCC3)cc2)o1 | c2 |
| CCN(CC)c1nc2cc(C(=O)OC)ccc2c(=O)n1-c1ccccc1 | c3 |

# next molecule below
Kindly state the category for this molecule: `Cc1cccc(N2CCN(S(=O)(=O)c3ccc(-c4nnc(C5CCC5)o4)o3)CC2)c1`
c3

====

assay: gradient 5% acetonitrile 3 min, to 50% in 2 min, to 85% in 15 min, held 3 min, 100 µL/min; details: column: Zorbax Extend-C18 2.1 x 50 mm; eluents: water / acetonitrile, 0.1% formic acid
# RP-LC retention time listing for each entry below
Reply numerically in s, unit not repeated.

The following compounds have reported results that may help.
| compound | endpointUnit | RP-LC retention time |
| --- | --- | --- |
| Cc1nn(-c2ccccc2)c(C)c1S(=O)(=O)N1CCC(C(=O)Nc2ccc(F)c(Cl)c2)CC1 | s | 1050 |
| O=C(c1nnn2c1COC(c1ccc(Cl)cc1)C2)N1CCN(C(=O)c2c(F)cccc2F)CC1 (centres undefined) | s | 951 |
| O=C(NC1CCCCCCC1)C1CCN(C(=O)c2ccccc2F)CC1 | s | 855 |
| CCc1cccc(NC(=O)C2CCCN(S(=O)(=O)c3cc(-c4noc(C)n4)cs3)C2)c1 (centres undefined) | s | 870 |
| CCOC(=O)CCNC(=O)N1[C@H]2CC[C@@H]1c1cnc(-c3ccccc3)nc1C2 | s | 794 |
| CSc1ncc2[nH]c(C(O)c3ccccc3)nc2n1 (centres undefined) | s | 692 |
| COCc1nc(-c2ccc(OC3CN(C(=O)NC(C)C)C3)cc2)no1 | s | 773 |
| CCc1cc(=O)n(CC(=O)Nc2ccc3c(c2)OCO3)c(-c2cccc(F)c2)n1 | s | 1100 |

# evaluate next
Entry under test: `Cc1ccc(-n2c(=O)c3c(cc(C)n3C)n(CC(=O)Nc3ccc(C)c(C)c3)c2=O)cc1` . Its RP-LC retention time was 906

====

test: gradient 5% acetonitrile 3 min, to 50% in 2 min, to 85% in 15 min, held 3 min, 100 µL/min; conditions: column: Zorbax Extend-C18 2.1 x 50 mm; eluents: water / acetonitrile, 0.1% formic acid
measuredAttribute: RP-LC retention time (s)
State the answer as a number, implicitly in s.

RP-LC retention time in this record for `Cc1cc(N2CCN(C)CC2)n2nc(CN3CCN(c4cccc(C)c4C)CC3)nc2n1` : 570

Field RP-LC retention time (entry `O=C(CCn1c(=O)oc2ccccc21)NCc1ccc2c(c1)OCO2` ) reads 941

Per the records, this compound ( CC(C)n1nccc1-c1nnc(NC(=O)C2CC(=O)N(c3ccc(F)cc3)C2)o1 (centres undefined) ) has RP-LC retention time equal to 685

====

assay: gradient 5% acetonitrile 3 min, to 50% in 2 min, to 85% in 15 min, held 3 min, 100 µL/min; details: column: Zorbax Extend-C18 2.1 x 50 mm; eluents: water / acetonitrile, 0.1% formic acid
measuredAttribute: RP-LC retention time (s)
Write the number in s without appending the unit.

| structureString | quantitativeResult |
| --- | --- |
| CCCn1c(=O)sc2cc(S(=O)(=O)N3CCC(C(=O)N4CCOCC4)CC3)ccc21 | 770 |
| c1cn(-c2cc(NC3CCCC3)ncn2)cn1 | 613 |
| CCn1ccc2c(cc(C(=O)Nc3cc(OC)ccc3OC)n2C)c1=O | 746 |
| COc1ccc(NC(=O)c2cnc3c(c2)c(=O)n(C)c(=O)n3-c2ccc(F)cc2)cc1 | 856 |

Proceed to the following item.
RP-LC retention time for `CCN1CCN(c2cc(-c3nc(-c4cccc(F)c4)no3)c3ccccc3n2)CC1` is 821

====

experiment: gradient 5% acetonitrile 3 min, to 50% in 2 min, to 85% in 15 min, held 3 min, 100 µL/min; conditions: column: Zorbax Extend-C18 2.1 x 50 mm; eluents: water / acetonitrile, 0.1% formic acid
measuredAttribute: RP-LC retention time (s)
Reply with just the number (in s).

| compound | endpointUnit | quantitativeResult |
| --- | --- | --- |
| Cc1onc(-c2c(F)cccc2Cl)c1C(=O)N1CCOCC1 | s | 727 |
| COCCCNC(=O)c1cc2n(n1)CCCN(Cc1ccc(F)cc1)C2=O | s | 697 |
| CNC(=O)c1cnn(-c2ccc(-c3nc(C4CC4)no3)cn2)c1C | s | 746 |

Kindly note the recorded RP-LC retention time for `COC(=O)c1cn(CC(=O)Nc2cc(F)ccc2F)c2nc(C)ccc2c1=O` , which is 727

compound `CCN(CC)c1nc(C(=O)Nc2ccc(C(C)=O)cc2)nc2nc(C)cc(C)c12` , RP-LC retention time observed: 679

For `O=C(NC1CCCC1)c1nc(Nc2ccc(F)cc2)c2ccccc2n1` the compound record lists RP-LC retention time as 824

====

assay: gradient 5% acetonitrile 3 min, to 50% in 2 min, to 85% in 15 min, held 3 min, 100 µL/min; settings: column: Zorbax Extend-C18 2.1 x 50 mm; eluents: water / acetonitrile, 0.1% formic acid
Categories are defined by ranges of RP-LC retention time, namely low: < 700 s; intermediate: ≥ 700 s and < 900 s; high: ≥ 900 s

Reference set (3 entries):
| compound | groupLabel |
| --- | --- |
| CCc1noc(NC(C)=O)c1-c1ccc(C)c(S(=O)(=O)NC2CCCCCCC2)c1 | high |
| COc1cccc(S(=O)(=O)N2CCc3nc[nH]c3C2)c1 | low |
| COC(=O)c1ccc(Cl)cc1NC(=O)N1CCN(C)c2ccccc21 | high |

Class? Entry: `CCNC(=O)Cc1nnc(-c2cccc(F)c2)o1`
low

Just checking, what class would you give `O=c1ccc(-c2ccncc2)nn1CCCNS(=O)(=O)/C=C/c1ccccc1` here?
low

Returns: class label. Input: `CSc1ccc(-c2nc3nc(C)cc(C)n3c2Nc2ccc(C)cc2)cc1`
intermediate

Values from the METLIN SMRT retention time set (Domingo-Almenara et al. 2019)
